// provenance: patent US12202843B2

Molecular target: human muscarinic M4 receptor (Homo sapiens)
Construct: expressed in transfected cells
Sequence (P08173 whole entry): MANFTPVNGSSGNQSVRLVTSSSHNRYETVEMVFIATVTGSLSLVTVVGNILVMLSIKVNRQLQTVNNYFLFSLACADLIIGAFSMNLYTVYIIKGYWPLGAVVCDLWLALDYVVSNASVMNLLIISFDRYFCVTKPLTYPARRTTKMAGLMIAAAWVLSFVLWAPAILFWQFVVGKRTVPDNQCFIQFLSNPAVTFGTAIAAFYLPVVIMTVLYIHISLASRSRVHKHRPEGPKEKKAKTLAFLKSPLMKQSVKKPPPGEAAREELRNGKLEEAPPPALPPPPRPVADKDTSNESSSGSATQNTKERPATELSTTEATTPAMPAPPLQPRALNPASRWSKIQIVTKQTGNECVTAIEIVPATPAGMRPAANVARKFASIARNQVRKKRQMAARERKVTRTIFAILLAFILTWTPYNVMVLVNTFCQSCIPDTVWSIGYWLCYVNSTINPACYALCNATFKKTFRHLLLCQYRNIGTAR
Assay: Alphascreen Surefire phospho-ERK1/2 functional assay, M4
Format: cell-based
Details: CHO cells stably expressing human M4, read-out: pEC50 M4 (converted)
measurement type: EC50 (nM)
A number alone suffices; assume nM.

- compound: "[2H]C([2H])([2H])C([2H])([2H])OC(=O)N1C2CCC1CC(N1CCC3(CC1)CNC(=O)C3)C2 (single isomer, unassigned) [Example 2-32 Isomer 1]"
  measurement type: "EC50"
  result: 126
- compound: "CCOC(=O)N1CC2CCC1CC2N1CCC2(CC1)CNC(=O)C2 (single isomer, unassigned) [Example 3-1 Isomer 3]"
  measurement type: "EC50"
  result: 158

Consider the record given below.
*Q* Could you share what EC50 was measured for C#CCOC(=O)N1C2CCC1CC(N1CCC3(CC1)CNC(=O)C3)C2 (single isomer, unassigned) [Example 2-4 Isomer 2] , tested on human muscarinic M4 receptor (Homo sapiens)?
*A* 25.1
